Parameter: pIC50. Scope: all listed entries.
# Test system: A375P F11s tumor cells
# test-method-notes: Cell growth inhibition assay (CellTiter-Glo), A375P F11s
# Type: cell-based, Human
# experimental-setup: Homo sapiens
pIC50: −log10 of the molar value.

Reference set (2 entries):
>>> print(df.to_string())
                              smiles_string           val
0  C=C(C)c1nc(-c2cccc(NS(=O)(=O)c3c(F)cccc3F)c2)c(-c2ccnc(Nc3ccc(N4CCN(CCF)CC4)c(F)c3)n2)s1  6.00 to 7.00
1  CCOc1ccc(Nc2nccc(-c3sc(N4CCCC4)nc3-c3cccc(NS(=O)(=O)c4c(F)cccc4F)c3)n2)cc1N1CCN(CCS(C)(=O)=O)CC1        > 7.00

# next molecule below
For the molecule CC(C)c1nc(-c2cccc(NS(=O)(=O)c3ccccc3)c2)c(-c2ccnc(Nc3ccc(N4CCN(CCS(C)(=O)=O)CC4)c(F)c3F)n2)s1 , report pIC50.
6.00 to 7.00

---

# target-system: B-Raf (Homo sapiens)
# Sequence (P15056 whole entry): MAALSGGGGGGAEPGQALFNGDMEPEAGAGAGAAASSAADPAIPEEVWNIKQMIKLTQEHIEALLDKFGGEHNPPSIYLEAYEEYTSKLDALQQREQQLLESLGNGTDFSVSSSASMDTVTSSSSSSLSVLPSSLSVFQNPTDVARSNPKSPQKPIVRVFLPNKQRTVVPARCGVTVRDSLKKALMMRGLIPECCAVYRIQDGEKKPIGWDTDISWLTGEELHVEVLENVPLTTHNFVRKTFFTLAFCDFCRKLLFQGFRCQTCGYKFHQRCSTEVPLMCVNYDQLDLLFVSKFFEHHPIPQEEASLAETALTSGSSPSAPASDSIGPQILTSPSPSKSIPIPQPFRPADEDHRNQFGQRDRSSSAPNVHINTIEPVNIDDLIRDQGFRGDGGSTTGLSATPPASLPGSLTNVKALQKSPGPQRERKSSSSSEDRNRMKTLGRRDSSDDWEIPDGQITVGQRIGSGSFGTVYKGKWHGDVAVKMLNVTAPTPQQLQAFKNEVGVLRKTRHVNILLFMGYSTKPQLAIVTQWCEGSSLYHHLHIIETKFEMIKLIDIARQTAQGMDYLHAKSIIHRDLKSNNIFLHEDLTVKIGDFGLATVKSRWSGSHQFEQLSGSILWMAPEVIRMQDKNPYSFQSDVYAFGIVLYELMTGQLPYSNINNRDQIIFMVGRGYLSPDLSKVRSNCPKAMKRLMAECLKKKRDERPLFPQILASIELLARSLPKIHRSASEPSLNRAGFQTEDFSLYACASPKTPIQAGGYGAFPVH
# test-method-notes: B-Raf Accelerated MEK ATPase assay (BRAMA), Method A or B
# Assay type: biochemical
# experimental-setup: Method A
Parameter: IC50. Scope: all listed entries.

Reference set (3 entries):
In [3]: df
Out[3]:
                                   molecule         target_system  property             val
0  CCc1nc(-c2cccc(NS(=O)(=O)c3ccccc3)c2)c(-c2ccnc(Nc3ccc(OC)c(N4CCN(CCS(C)(=O)=O)CC4)c3)n2)s1  B-Raf (Homo sapiens)      IC50        < 100 nM
1  CCNc1nc(-c2cccc(NS(=O)(=O)c3ccccc3)c2)c(-c2ccnc(Nc3ccc(OCCN4CCCC4)c(F)c3)n2)s1 [Example 1]  B-Raf (Homo sapiens)      IC50  100 to 1000 nM
2  COCCN1CCN(c2ccc(Nc3nccc(-c4sc(C(C)C)nc4-c4cccc(NS(=O)(=O)c5ccccc5)c4)n3)cn2)CC1  B-Raf (Homo sapiens)      IC50        < 100 nM

For the molecule CCc1nc(-c2cccc(NS(=O)(=O)c3ccccc3)c2)c(-c2ccnc(Nc3ccc(N4CCOCC4)c(F)c3)n2)s1 , report IC50.
100 to 1000 nM

For the molecule CCNc1nc(-c2cccc(NS(=O)(=O)c3ccccc3)c2)c(-c2ccnc(Nc3ccc(OCCN4CCCC4)c(F)c3)n2)s1 [Example 65] , report IC50.
< 100 nM

---

Parameter: IC50. Scope: all listed entries.
# Tested on: A375P F11s tumor cells
# test-method-notes: Cell growth inhibition assay (CellTiter-Glo), A375P F11s
# Format: cell-based, Human
# experimental-setup: Homo sapiens
Where a name gives a salt, the structure may show the parent alone.

Reference set (5 entries):
In [3]: df
Out[3]:
                                   compound  property             val
0  CC(C)c1nc(-c2ccc(F)c(NS(=O)(=O)c3c(F)cccc3F)c2)c(-c2ccnc(Nc3cccc(CCS(N)(=O)=O)c3)n2)s1 [Example 113]      IC50  100 to 1000 nM
1  CC(C)c1nc(-c2cncc(NS(=O)(=O)c3c(F)cccc3F)c2)c(-c2ccnc(Nc3ccc(N4CCOCC4)nc3)n2)s1 [Example 47]      IC50        < 100 nM
2  CCOc1ccc(Nc2nccc(-c3sc(C(C)C)nc3-c3ccc(F)c(NS(=O)(=O)c4c(F)cccc4F)c3)n2)cc1N1CCN(CCF)CC1 [Example 98]      IC50  100 to 1000 nM
3  CC(=O)N1CCN(c2ccc(Nc3nccc(-c4sc(C(C)C)nc4-c4cccc(NS(=O)(=O)C5CCCCC5)c4)n3)cn2)CC1 [Example 39]      IC50  100 to 1000 nM
4  CC(C)(C)c1nc(-c2ccc(F)c(NS(=O)(=O)c3c(F)cccc3F)c2)c(-c2ccnc(Nc3ccc(N4CCOCC4)nc3)n2)s1 [Example 28, hydrochloride]      IC50        < 100 nM

# next compound below
Provide IC50, tested on A375P F11s tumor cells, for COc1cc(N2CCN(CCS(C)(=O)=O)CC2)c(C)cc1Nc1nccc(-c2sc(C(C)(C)C)nc2-c2cccc(NS(=O)(=O)c3c(F)cccc3F)c2)n1 [Example 120] .
100 to 1000 nM

---

# target-system: B-Raf (Homo sapiens)
# test-method-notes: B-Raf Accelerated MEK ATPase assay (BRAMA), Method A or B
# Assay type: biochemical
# experimental-setup: Method B: final MEK 150 nM, single end point read
pIC50: −log10 of the molar value.
property: pIC50

Reference set (3 entries):
In [3]: df
Out[3]:
                              smiles_string  property           val
0  COC(=O)c1ccc(S(=O)(=O)Nc2cccc(-c3nc(C(C)C)sc3-c3ccnc(Nc4ccc(N5CCOCC5)nc4)n3)c2)o1     pIC50        > 7.00
1  COc1cc(N2CCN(CCS(C)(=O)=O)CC2)c(C)cc1Nc1nccc(-c2sc(C(C)C)nc2-c2cncc(NS(=O)(=O)c3c(F)cccc3F)c2)n1     pIC50  6.00 to 7.00
2  Cc1ccc(-c2nc(C(C)C)sc2-c2ccnc(Nc3ccc(N4CCOCC4)nc3)n2)cc1NS(=O)(=O)c1c(F)cccc1F     pIC50  6.00 to 7.00

For the compound COc1cc(OC2CCN(CCS(C)(=O)=O)CC2)c(C)cc1Nc1nccc(-c2sc(C(C)C)nc2-c2cccc(NS(=O)(=O)c3c(F)cccc3F)c2)n1 , report pIC50.
> 7.00

For the compound CC(C)c1nc(-c2cccc(NS(=O)(=O)c3ccccc3)c2)c(-c2ccnc(Nc3ccc(N4CCN(CCS(C)(=O)=O)CC4)c(F)c3F)n2)s1 , report pIC50.
> 7.00

For the compound CC(=O)N1CCc2cc(Nc3nccc(-c4sc(C(C)C)nc4-c4cccc(NS(=O)(=O)c5ccccc5)c4)n3)ccc21 , report pIC50.
> 7.00

For the compound CC(C)c1nc(-c2ccc(F)c(NS(=O)(=O)c3c(F)cccc3F)c2)c(-c2ccnc(Nc3ccc(N4CCC(C#N)CC4)nc3)n2)s1 , report pIC50.
> 7.00

For the compound CC(C)c1nc(-c2cccc(NS(=O)(=O)c3c(F)cccc3F)c2F)c(-c2ccnc(Nc3cnc(N4CCOCC4)c(F)c3)n2)s1 , report pIC50.
> 7.00

For the compound CC(C)c1nc(-c2cccc(NS(=O)(=O)c3c(F)cccc3F)c2)c(-c2ccnc(Nc3ccc(N4CCN(CCS(C)(=O)=O)CC4)cc3C(F)(F)F)n2)s1 , report pIC50.
> 7.00

For the compound COc1ccc(S(C)(=O)=O)cc1Nc1nccc(-c2sc(C(C)C)nc2-c2cccc(NS(=O)(=O)c3c(F)cccc3F)c2F)n1 , report pIC50.
> 7.00

---

# Tested on: BT474 tumor cells
# test-method-notes: Cell growth inhibition assay (CellTiter-Glo), BT474
# Assay type: cell-based, Human
# experimental-setup: Homo sapiens, BT-474, 72 h, 3 days incubation
Parameter: IC50. Scope: all listed entries.

Reference set (2 entries):
                                   compound  property     val
0  CC(C)c1nc(-c2cccc(NS(=O)(=O)c3ccccc3)c2)c(-c2ccnc(Nc3ccc(N4CCOCC4)cn3)n2)s1 [Example 92]      IC50  > 1 µM
1  COc1cc(N2CCC(N3CCN(CCS(C)(=O)=O)CC3)CC2)ccc1Nc1nccc(-c2sc(C(C)C)nc2-c2cccc(NS(=O)(=O)c3c(F)cccc3F)c2)n1 [Example 20]      IC50  > 1 µM

# next compound below
For the compound Cc1cc(Nc2nccc(-c3sc(C(C)(C)C)nc3-c3cccc(NS(=O)(=O)c4c(F)cccc4F)c3F)n2)ccn1 [Example 159] , report IC50.
> 1 µM

---

Parameter: pIC50. Scope: all listed entries.
# target-system: ErbB2 (Homo sapiens, UniProt P04626)
# Sequence (P04626 23-1255): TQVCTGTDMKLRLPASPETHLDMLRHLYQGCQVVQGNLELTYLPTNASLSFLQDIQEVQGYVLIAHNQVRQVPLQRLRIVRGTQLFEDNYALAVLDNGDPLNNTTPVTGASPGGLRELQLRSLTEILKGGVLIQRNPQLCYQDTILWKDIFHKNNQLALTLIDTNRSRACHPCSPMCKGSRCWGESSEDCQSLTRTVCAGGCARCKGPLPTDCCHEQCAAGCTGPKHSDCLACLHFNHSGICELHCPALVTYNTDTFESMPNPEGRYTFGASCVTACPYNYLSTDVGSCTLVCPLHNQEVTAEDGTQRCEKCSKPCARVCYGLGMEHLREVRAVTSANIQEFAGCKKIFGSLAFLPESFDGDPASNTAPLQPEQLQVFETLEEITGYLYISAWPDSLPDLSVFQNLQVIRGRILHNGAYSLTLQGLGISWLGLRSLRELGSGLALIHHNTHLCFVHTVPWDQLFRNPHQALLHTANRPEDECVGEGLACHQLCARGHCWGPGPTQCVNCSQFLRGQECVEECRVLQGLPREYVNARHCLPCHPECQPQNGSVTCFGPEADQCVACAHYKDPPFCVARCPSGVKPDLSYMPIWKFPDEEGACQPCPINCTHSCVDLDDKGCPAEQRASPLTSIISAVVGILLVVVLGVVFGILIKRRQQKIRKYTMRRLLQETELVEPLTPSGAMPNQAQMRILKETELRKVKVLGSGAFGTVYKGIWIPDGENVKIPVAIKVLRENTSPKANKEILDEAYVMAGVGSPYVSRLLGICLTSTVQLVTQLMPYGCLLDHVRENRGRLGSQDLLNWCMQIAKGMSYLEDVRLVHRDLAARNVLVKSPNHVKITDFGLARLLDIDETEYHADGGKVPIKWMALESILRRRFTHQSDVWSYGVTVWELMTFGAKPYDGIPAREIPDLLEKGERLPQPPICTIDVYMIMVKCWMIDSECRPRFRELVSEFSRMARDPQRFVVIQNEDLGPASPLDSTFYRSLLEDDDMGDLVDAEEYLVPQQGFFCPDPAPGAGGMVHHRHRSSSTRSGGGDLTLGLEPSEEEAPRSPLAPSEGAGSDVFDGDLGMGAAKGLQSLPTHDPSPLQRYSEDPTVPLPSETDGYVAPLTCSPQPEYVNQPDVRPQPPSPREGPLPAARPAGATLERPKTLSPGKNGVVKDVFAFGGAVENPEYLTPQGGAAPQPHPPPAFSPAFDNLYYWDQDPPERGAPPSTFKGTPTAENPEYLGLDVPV
pIC50: −log10 of the molar value. Structures can show the parent of a compound that is named as a salt.

Reference set (2 entries):
compound	pIC50
CCNc1nc(-c2cccc(NS(=O)(=O)c3ccccc3)c2)c(-c2ccnc(Nc3ccc(OCCN4CCCC4)c(F)c3)n2)s1 [Example 1]	6.00 to 7.00
COc1ccc(Nc2nccc(-c3sc(C(C)C)nc3-c3cccc(NS(=O)(=O)c4c(F)cccc4F)c3)n2)cc1N(C)C [Example 18, trifluoroacetate]	6.00 to 7.00

For the compound CN(C)c1nc(-c2ccc(F)c(NS(=O)(=O)c3c(F)cccc3F)c2)c(-c2ccnc(Nc3ccc(N4CCOCC4)nc3)n2)s1 , report pIC50.
6.00 to 7.00

For the compound COc1cc(N2CCN(CCS(C)(=O)=O)CC2)c(C)cc1Nc1nccc(-c2sc(C(C)C)nc2-c2cccc(NS(=O)(=O)c3c(F)cccc3F)c2F)n1 , report pIC50.
> 7.00

For the compound COc1cc(N2CCC(CCS(C)(=O)=O)CC2)c(C)cc1Nc1nccc(-c2sc(C(C)C)nc2-c2ccnc(NS(=O)(=O)c3c(F)cccc3F)c2)n1 , report pIC50.
< 6.00

For the compound COc1cc(OCCN2CCOCC2)c(C)cc1Nc1nccc(-c2sc(C(C)C)nc2-c2cccc(NS(=O)(=O)c3c(F)cccc3F)c2F)n1 , report pIC50.
6.00 to 7.00

For the compound O=S(=O)(Nc1cc(-c2nc(N3CCCC3)sc2-c2ccnc(Nc3ccc(N4CCOCC4)nc3)n2)ccc1F)c1c(F)cccc1F , report pIC50.
6.00 to 7.00

For the compound CC(C)c1nc(-c2cccc(NS(=O)(=O)c3c(F)cccc3F)c2)c(-c2ccnc(Nc3ccc(N4CCN(CCS(C)(=O)=O)CC4)cc3C(F)(F)F)n2)s1 , report pIC50.
< 6.00
